Target: T1, recombinant protein of the hTROP-2 extracellular region (human, UniProt P09758 27-263)
T1 construct: produced with baculovirus, purified on Ni Sepharose; also called hTROP-2 EC; hTROP-2-EC-His; not shown: C-terminal myc-His tag from pcDNA4/myc-His A
T1 sequence: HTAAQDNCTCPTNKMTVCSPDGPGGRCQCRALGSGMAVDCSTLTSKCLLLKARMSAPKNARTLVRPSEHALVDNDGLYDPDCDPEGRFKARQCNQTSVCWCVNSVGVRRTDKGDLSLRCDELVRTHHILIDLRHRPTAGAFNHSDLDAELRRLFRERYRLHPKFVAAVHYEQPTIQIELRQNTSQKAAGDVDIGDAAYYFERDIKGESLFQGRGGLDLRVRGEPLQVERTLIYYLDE
Test: antigen-coated ELISA, plate coated with 0.5 µg/ml hTROP-2 extracellular region
property.name: EC50

Reported EC50 of anti-hTROP-2 monoclonal antibody clone K5-70 (antibody, mouse IgG2a, V domains shown, mouse IgG2a, hybridoma FERM BP-11251; also called K5-70 antibody; mouse K5-70 antibody) VH: QVQLQQPGAELVRPGASVKLSCKASGYTFTIYWINWVKQRPGQGLEWIGNIYPSDSYTNYNQKFKDKATLTVDKSSSTAYMQLSSPTSEDSAVYYCTRTSMADYWGQGTTLTVSS VL: DILLTQSPAILSVSPGERVSFSCRASQSIGTSIHWYQQRTNGSPRLLIKYASESISGIPSRFSGSGSGTDFTLSINSVESEDIADYYCQQSNSWPFTFGSGTKLEIK : 0.027 µg/mL

Reported EC50 of anti-hTROP-2 monoclonal antibody clone T6-16 (antibody, mouse IgG2a, V domains shown, mouse IgG2a, hybridoma FERM BP-11346; also called T6-16 antibody) VH: EVQLQQSGPELVKPGASVKISCKASGYTFTDYNMHWVKQSHGKNLEWIGYIYPYNGGTGYNQRFKSRATMTVDKSSSTAYMELRSLTSDDSAVYYCAREDYGSSPSYAMDYWGQGTSVIVSS VL: DVVMTQTPLSLPVSLGDQASISCRSSQSLVHGNGNTYLHWYLQKPGQSPKLLIYKVSNRFSGVPDRFSGSGSGTDFTLKISRVEAEDLGVYFCSQTTHVPTFGSGTKLEIK : 0.03 µg/mL

Reported EC50 of humanized T6-16 antibody HuT6-16-2 (antibody, V domains shown, HuT6-16 VH2 with HuT6-16 VL; also called HuT6-16-2 antibody) VH: QVQLVQSGAEVKKPGASVKVSCKASGYTFTDYNMHWVRQAPGQGLEWIGYIYPYNGGTGYNQRFKSRATMTVDTSTSTAYMELRSLRSDDTAVYYCAREDYGSSPSYAMDYWGQGTMVTVSS VL: DIVMTQSPLSLPVTPGEPASISCRSSQSLVHGNGNTYLHWYLQKPGQSPQLLIYKVSNRFSGVPDRFSGSGSGTDFTLKISRVEAEDVGVYYCSQTTHVPTFGGGTKVEIK : 0.027 µg/mL
